- Experiment Summary: activity coefficient (dimensionless); of the first substance listed, at infinite dilution; xn = mol fraction of the nth substance listed
- Conditions Used: 318.15 K; 101 kPa; Liquid; Chromatography; x1 = 0
Endpoint Name: activity coefficient

>>> result_number("Cc1ccccc1C [1,2-dimethylbenzene] + CCCC[N+]1(C)CCCC1.N#C[B-](C#N)(C#N)C#N")
1.34
>>> result_number("C1CCOC1 [tetrahydrofuran] + CCCC[N+]1(C)CCCC1.N#C[B-](C#N)(C#N)C#N")
0.61
>>> result_number("CCC(C)(C)OC [2-methoxy-2-methylbutane] + CCCC[N+]1(C)CCCC1.N#C[B-](C#N)(C#N)C#N")
3.32
>>> result_number("CC1CCCCC1 [methylcyclohexane] + CCCC[N+]1(C)CCCC1.N#C[B-](C#N)(C#N)C#N")
11.9
>>> result_number("Cc1ccc(C)cc1 [1,4-dimethylbenzene] + CCCC[N+]1(C)CCCC1.N#C[B-](C#N)(C#N)C#N")
1.46

* * *

- Experiment Summary: activity coefficient (dimensionless); of the first substance listed, at infinite dilution; xn = mol fraction of the nth substance listed
- Conditions Used: 328.15 K; 101 kPa; Liquid; Chromatography; x1 = 0
Endpoint Name: activity coefficient

>>> result("CCCO [propan-1-ol] + CCCC[N+]1(C)CCCC1.N#C[B-](C#N)(C#N)C#N")
1.36
>>> result("CCC(C)(C)C [2,2-dimethylbutane] + CCCC[N+]1(C)CCCC1.N#C[B-](C#N)(C#N)C#N")
14
>>> result("CCCOCCC [dipropyl ether] + CCCC[N+]1(C)CCCC1.N#C[B-](C#N)(C#N)C#N")
5.65
>>> result("CCCCCCCCC [nonane] + CCCC[N+]1(C)CCCC1.N#C[B-](C#N)(C#N)C#N")
42.5
>>> result("C=CCCCCC [1-heptene] + CCCC[N+]1(C)CCCC1.N#C[B-](C#N)(C#N)C#N")
10.2
>>> result("CCCCCC [hexane] + CCCC[N+]1(C)CCCC1.N#C[B-](C#N)(C#N)C#N")
15.3
>>> result("Cc1ccc(C)cc1 [1,4-dimethylbenzene] + CCCC[N+]1(C)CCCC1.N#C[B-](C#N)(C#N)C#N")
1.49

* * *

- Experiment Summary: activity coefficient (dimensionless); of the first substance listed, at infinite dilution; xn = mol fraction of the nth substance listed
- Conditions Used: 368.15 K; 101 kPa; Liquid; Chromatography; x1 = 0
Endpoint Name: activity coefficient

>>> result("C=CCCCC [hex-1-ene] + CCCC[N+]1(C)CCCC1.N#C[B-](C#N)(C#N)C#N")
6.57
>>> result("CCCCO [butan-1-ol] + CCCC[N+]1(C)CCCC1.N#C[B-](C#N)(C#N)C#N")
1.23
>>> result("Cc1cccc(C)c1 [1,3-dimethylbenzene] + CCCC[N+]1(C)CCCC1.N#C[B-](C#N)(C#N)C#N")
1.66
>>> result("CCCCCCC [heptane] + CCCC[N+]1(C)CCCC1.N#C[B-](C#N)(C#N)C#N")
16.6
>>> result("C#CCCCCCC [1-octyne] + CCCC[N+]1(C)CCCC1.N#C[B-](C#N)(C#N)C#N")
4.78
>>> result("CC(C)=O [acetone] + CCCC[N+]1(C)CCCC1.N#C[B-](C#N)(C#N)C#N")
0.485
